Catalogue of ACT readings, one per entry.
system_under_test: Melanocortin receptor 3 (Homo sapiens, UniProt P41968)
Sequence (P41968 whole entry): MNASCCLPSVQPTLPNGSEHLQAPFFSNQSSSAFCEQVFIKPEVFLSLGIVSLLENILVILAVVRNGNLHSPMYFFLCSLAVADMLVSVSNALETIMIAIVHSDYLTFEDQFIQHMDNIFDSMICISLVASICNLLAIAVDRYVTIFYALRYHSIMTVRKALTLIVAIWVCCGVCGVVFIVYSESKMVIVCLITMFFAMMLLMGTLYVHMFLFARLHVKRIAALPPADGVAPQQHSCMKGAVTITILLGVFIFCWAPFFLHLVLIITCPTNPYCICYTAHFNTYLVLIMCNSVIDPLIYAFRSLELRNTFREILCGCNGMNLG
assay_protocol: Stimulation of intracellular cAMP levels in HEK293 cells expressing human Melanocortin-3 receptor
Number in %, nothing else.

N=C(N)NCCC[C@@H]1NC(=O)[C@@H](Cc2ccccc2)NC(=O)[C@H](Cc2c[nH]cn2)NC(=O)CCCC(=O)NCCCC[C@H](C(N)=O)NC(=O)[C@@H](Cc2c[nH]c3ccccc23)NC1=O :: 100
N=C(N)NCCC[C@@H]1NC(=O)[C@@H](Cc2ccccc2)NC(=O)[C@H](Cc2c[nH]cn2)NC(=O)c2ccccc2C(=O)NCCCC[C@H](C(N)=O)NC(=O)[C@@H](Cc2c[nH]c3ccccc23)NC1=O :: 76
C[C@@H]1NC(=O)[C@@H](Cc2ccccc2)NC(=O)[C@H](Cc2c[nH]cn2)NC(=O)CCC(=O)NCCCC[C@H](C(N)=O)NC(=O)[C@@H](Cc2c[nH]c3ccccc23)NC1=O :: 53
N=C(N)NCCC[C@H]1NC(=O)[C@H](Cc2ccccc2)NC(=O)[C@H]2CCCN2C(=O)CCC(=O)NCCCC[C@@H](C(N)=O)NC(=O)[C@H](Cc2c[nH]c3ccccc23)NC1=O :: 21
NCCCC[C@H](NC(=O)[C@H](Cc1c[nH]c2ccccc12)NC(=O)[C@H](CCCN=C(N)N)NC(=O)[C@@H](Cc1ccccc1)NC(=O)[C@H](Cc1c[nH]cn1)NC(=O)CCC(=O)O)C(N)=O :: 100

Turning now to a further record.
INPUT: What value of ACT has been recorded for this entry: C[C@@H]1NC(=O)CCC(=O)NCCCC[C@H](C(N)=O)NC(=O)[C@@H](Cc2c[nH]c3ccccc23)NC(=O)[C@H](CCCN=C(N)N)NC(=O)[C@@H](Cc2ccccc2)NC1=O
OUTPUT: 19

---

system_under_test: UniProt:P33032
assay_protocol: Binding affinity for human melanocortin 5 receptor (hMC5R) expressed in HEK293 cells
Assay type: cell-based
pKi: −log10 of the molar value.
Use 7 as the dividing line for pKi, with the line itself on the Met side and lower values as Not met.

Worked cases, answers included:
N=C(N)NCCC[C@@H]1NC(=O)[C@@H](Cc2ccc3ccccc3c2)NC(=O)[C@H](Cc2cnc[nH]2)NC(=O)c2ccccc2C(=O)NCCCC[C@@H](C(N)=O)NC(=O)[C@H](Cc2c[nH]c3ccccc23)NC1=O :: Not met
N=C(N)NCCC[C@@H]1NC(=O)[C@@H](Cc2ccc3ccccc3c2)NC(=O)[C@H](Cc2cnc[nH]2)NC(=O)CCCC(=O)NCCCC[C@@H](C(N)=O)NC(=O)[C@H](Cc2c[nH]c3ccccc23)NC1=O :: Met
N=C(N)NCCC[C@@H]1NC(=O)[C@@H](Cc2ccccc2)NC(=O)[C@H](Cc2c[nH]cn2)NC(=O)CCC(=O)NCCCC[C@@H](C(N)=O)NC(=O)[C@H](Cc2c[nH]c3ccccc23)NC1=O :: Not met
N=C(N)NCCC[C@@H]1NC(=O)[C@@H](Cc2ccccc2)NC(=O)[C@H](Cc2c[nH]cn2)NC(=O)CCCC(=O)NCCCC[C@@H](C(N)=O)NC(=O)[C@H](Cc2c[nH]c3ccccc23)NC1=O :: Not met

With those in mind, consider the next compound.
INPUT: Reported pKi at or above 7? N=C(N)NCCC[C@H](NC(=O)[C@@H](Cc1ccccc1)NC(=O)[C@H](Cc1cnc[nH]1)NC(=O)CCC(=O)O)C(=O)N[C@@H](Cc1c[nH]c2ccccc12)C(=O)N[C@@H](CCCCN)C(N)=O
OUTPUT: Not met

---

system_under_test: UniProt P41968
assay_protocol: Inhibition of human Melanocortin-3 receptor (hMC3R) expressed in HEK293 cells
Type: cell-based
property_measured: pEC50
// field semantics: pEC50 = negative decimal log of concentration (mol/L)

N=C(N)NCCC[C@@H]1NC(=O)[C@@H](Cc2ccccc2)NC(=O)[C@H](Cc2c[nH]cn2)NC(=O)CCCC(=O)NCCCC[C@@H](C(N)=O)NC(=O)[C@H](Cc2c[nH]c3ccccc23)NC1=O :: 7.12

INPUT: Any idea what its pEC50 is? The compound is N=C(N)NCCC[C@@H]1NC(=O)[C@@H](Cc2ccc3ccccc3c2)NC(=O)[C@H](Cc2cnc[nH]2)NC(=O)c2ccccc2C(=O)NCCCC[C@@H](C(N)=O)NC(=O)[C@H](Cc2c[nH]c3ccccc23)NC1=O
OUTPUT: 7.74

INPUT: Cool, now N=C(N)NCCC[C@H](NC(=O)[C@@H](Cc1ccccc1)NC(=O)[C@H](Cc1cnc[nH]1)NC(=O)CCC(=O)O)C(=O)N[C@@H](Cc1c[nH]c2ccccc12)C(=O)N[C@@H](CCCCN)C(N)=O
OUTPUT: 7.17

INPUT: Query N=C(N)NCCC[C@@H]1NC(=O)[C@@H](Cc2ccc3ccccc3c2)NC(=O)[C@H](Cc2c[nH]cn2)NC(=O)CCC(=O)NCCCC[C@@H](C(N)=O)NC(=O)[C@H](Cc2c[nH]c3ccccc23)NC1=O next
OUTPUT: 7.15

INPUT: Follow-up entry: N=C(N)NCCC[C@@H]1NC(=O)[C@@H](Cc2ccccc2)NC(=O)[C@H](Cc2c[nH]cn2)NC(=O)CCC(=O)NCCCC[C@@H](C(N)=O)NC(=O)[C@H](Cc2c[nH]c3ccccc23)NC1=O
OUTPUT: 7.15

---

system_under_test: Melanocortin receptor 5 (Homo sapiens)
Sequence (P33032 whole entry): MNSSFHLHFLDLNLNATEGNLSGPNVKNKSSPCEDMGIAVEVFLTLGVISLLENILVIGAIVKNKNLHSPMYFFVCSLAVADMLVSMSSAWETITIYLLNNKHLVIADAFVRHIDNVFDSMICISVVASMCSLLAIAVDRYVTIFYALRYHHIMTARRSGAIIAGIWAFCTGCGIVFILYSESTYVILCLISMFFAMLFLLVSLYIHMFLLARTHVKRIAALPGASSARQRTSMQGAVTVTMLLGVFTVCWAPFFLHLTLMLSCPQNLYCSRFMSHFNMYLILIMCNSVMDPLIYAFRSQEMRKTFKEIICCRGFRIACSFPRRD
assay_protocol: Effective concentration against human melanocortin 5 receptor (hMC5R) in HEK293 cells
Type: cell-based
experimental_parameters: hek293
property_measured: pEC50
By convention, pEC50 is the negative base-10 log of a molar concentration.

INPUT: Item N=C(N)NCCC[C@@H]1NC(=O)[C@@H](Cc2ccccc2)NC(=O)[C@@H]2CCCN2C(=O)CCC(=O)NCCCC[C@@H](C(N)=O)NC(=O)[C@H](Cc2c[nH]c3ccccc23)NC1=O has what recorded pEC50?
OUTPUT: 5.89

---

Listing of entries alongside the reported EC50.
system_under_test: Melanocortin receptor 5 (Homo sapiens)
assay_protocol: Effective concentration against human melanocortin 5 receptor (hMC5R) in HEK293 cells
Format: cell-based

Sample answers from the record:
C[C@@H]1NC(=O)CCC(=O)NCCCC[C@@H](C(N)=O)NC(=O)[C@H](Cc2c[nH]c3ccccc23)NC(=O)[C@H](CCCN=C(N)N)NC(=O)[C@@H](Cc2ccccc2)NC1=O :: > 10 µM
N=C(N)NCCC[C@@H]1NC(=O)[C@@H](Cc2ccccc2)NC(=O)[C@H](Cc2cnc[nH]2)NC(=O)c2ccccc2C(=O)NCCCC[C@@H](C(N)=O)NC(=O)[C@H](Cc2c[nH]c3ccccc23)NC1=O :: > 5 µM

Next, consider the following molecule.
INPUT: For the molecule N=C(N)NCCC[C@@H]1NC(=O)[C@@H](Cc2ccccc2)NC(=O)[C@H](Cc2c[nH]cn2)NC(=O)CCCC(=O)NCCCC[C@@H](C(N)=O)NC(=O)[C@H](Cc2c[nH]c3ccccc23)NC1=O , what EC50 is on record?
OUTPUT: > 10 µM

---

system_under_test: Melanocortin receptor 3 (Homo sapiens)
assay_protocol: Binding affinity for human Melanocortin-3 receptor (hMC3R) expressed in HEK293 cells
Assay type: cell-based
// values below are reported pKi
Scale explanation: pKi corresponds to minus log10 of a concentration expressed in moles per litre.

Previously resolved entries follow.
N=C(N)NCCC[C@H](NC(=O)[C@@H](Cc1ccccc1)NC(=O)[C@H](Cc1cnc[nH]1)NC(=O)CCC(=O)O)C(=O)N[C@@H](Cc1c[nH]c2ccccc12)C(=O)N[C@@H](CCCCN)C(N)=O :: 6.85
N=C(N)NCCC[C@@H]1NC(=O)[C@@H](Cc2ccccc2)NC(=O)[C@H](Cc2c[nH]cn2)NC(=O)CCCC(=O)NCCCC[C@@H](C(N)=O)NC(=O)[C@H](Cc2c[nH]c3ccccc23)NC1=O :: 6.96

INPUT: For the compound shown here, N=C(N)NCCC[C@@H]1NC(=O)[C@@H](Cc2ccccc2)NC(=O)[C@H](Cc2c[nH]cn2)NC(=O)CCC(=O)NCCCC[C@@H](C(N)=O)NC(=O)[C@H](Cc2c[nH]c3ccccc23)NC1=O , give the reported pKi.
OUTPUT: 7.11

Measured values drawn from ChEMBL document CHEMBL1135991 for this set.
